- system: T1, CRH (NT-Biotin) (human and mouse (same sequence), not fully specified; biotin at the N-terminus)
- T1 peptide: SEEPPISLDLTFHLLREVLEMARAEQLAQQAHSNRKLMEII
- testDetails: ELISA, biotinylated CRH on streptavidin plate
pEC50: −log10 of the molar value.
metricName: pEC50

>>> measurednumber("PR302031 (antibody, human IgG1, kappa, V domains shown, humanized variant of PR301777) VH: EVQLVESGGGLVQPGGSLRLSCAASGFTFSNYWMNWVRQAPGKGLEWVGEIRLKSNNYATHYAESVKGRFTISRDDSKNSLYLQMNSLKTEDTAVYYCTVGTLVYWGQGTLVTVSS VL: EIVLTQSPATLSLSPGERATLSCRASQSVSTSTYNYMHWFQQKPGQAPRLLIKFASNLESGIPARFSGSGSGTDFTLTISSLEPEDTAVYYCQHSWEIPYTFGQGTKLEIKR")
10.43
>>> measurednumber("PR302066 (antibody, human IgG1, kappa, V domains shown, humanized variant of PR301777) VH: EMQLVESGGGLVKPGGSLRLSCAASGFTFSNYWMNWVRQAPGKGLEWVAEIRLKSNNYATHYAESVKGRFTISRDDSKSTVYLQMNSLKTEDTAVYYCTVGTLVYWGQGTLVTVSS VL: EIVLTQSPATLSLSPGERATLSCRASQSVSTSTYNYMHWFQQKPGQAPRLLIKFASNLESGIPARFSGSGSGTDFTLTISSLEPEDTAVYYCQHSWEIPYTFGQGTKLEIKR")
10.11
>>> measurednumber("PR302034 (antibody, human IgG1, kappa, V domains shown, humanized variant of PR301777) VH: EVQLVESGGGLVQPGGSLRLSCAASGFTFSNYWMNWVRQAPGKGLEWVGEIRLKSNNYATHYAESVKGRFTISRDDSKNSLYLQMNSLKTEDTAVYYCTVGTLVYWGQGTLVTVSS VL: DIQLTQSPSSLSASVGDRVTITCRASQSVSTSTYNYMHWFQQKPGKAPKLLIKFASNLESGVPSRFSGSGSGTDFTLTISSLQPEDTATYYCQHSWEIPYTFGQGTKLEIKR")
10.59
>>> measurednumber("PR302029 (antibody, human IgG1, kappa, V domains shown, humanized variant of PR301777) VH: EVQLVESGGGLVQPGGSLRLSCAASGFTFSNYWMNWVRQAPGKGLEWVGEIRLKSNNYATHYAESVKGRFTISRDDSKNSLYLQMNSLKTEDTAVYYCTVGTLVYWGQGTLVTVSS VL: DIVLTQSPDSLAVSLGERATINCRASQSVSTSTYNYMHWFQQKPGQPPKLLIKFASNLESGVPDRFSGSGSGTDFTLTISSLQAEDTAVYYCQHSWEIPYTFGQGTKLEIKR")
10.52
>>> measurednumber("PR302048 (antibody, human IgG1, kappa, V domains shown, humanized variant of PR301777) VH: EVQLVESGGGLVQPGGSLKLSCAASGFTFSNYWMNWVRQASGKGLEWVGEIRLKSNNYATHYAESVKGRFTISRDDSKNTAYLQMNSLKTEDTAVYYCTRGTLVYWGQGTLVTVSS VL: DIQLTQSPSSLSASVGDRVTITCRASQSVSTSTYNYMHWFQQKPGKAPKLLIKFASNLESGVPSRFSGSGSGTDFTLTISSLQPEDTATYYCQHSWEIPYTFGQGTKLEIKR")
10.37

Reference source: patent US20260042834A1
